// provenance: BindingDB's records for doi:10.1021/acschembio.7b00385

Reported pIC50 values follow for various compounds
- experimentalTarget: Actin (Saccharomyces cerevisiae (strain ATCC 204508 / S288c))
- experimentDescription: Liquid growth assay
- studyConditions: 30 °C
In simple prose, pIC50 is minus the logarithm base ten of a concentration in moles per litre.

Worked cases, pIC50 given:
compound | pIC50
C/C1=C/C(=O)O[C@@H]2C[C@@H](CC[C@H](C)/C=C\C=C\CC1)O[C@@](O)([C@@H]1CSC(=O)N1)C2 [LAT-A] | 7.15
C/C1=C\[C@@H](C)[C@@H](C)OC(=O)C[C@H](c2ccc(O)cc2)NC(=O)[C@@H](Cc2c[nH]c3ccccc23)N(C)C(=O)[C@H](C)NC(=O)[C@@H](C)C1 [CHEBI:84382] | 4.78

# ---- query compound ----
Exercise: I'd like to know its pIC50. The compound in question is COC1CC(O)/C=C/C=C/C=C\C(C)C(C(C)C(O)CC(C)O)OC(=O)\C=C/C=C/C=C\C(C)=C\C(C)C(O)/C=C\C=C\c2coc(n2)C1C (stereo not drawn) [SCHEMBL1889389]
Key: 6.85
